Target: menin/MLL (terbium chelate-labeled menin, FITC-MBM1 peptide) (Homo sapiens, UniProt O00255, T541A)
Construct: Menin (a.a 1-610-6xhis tag, 2.3 mg/mL in 20 mM Hepes)
Sequence (O00255 with tags, fused parts or gaps T541A): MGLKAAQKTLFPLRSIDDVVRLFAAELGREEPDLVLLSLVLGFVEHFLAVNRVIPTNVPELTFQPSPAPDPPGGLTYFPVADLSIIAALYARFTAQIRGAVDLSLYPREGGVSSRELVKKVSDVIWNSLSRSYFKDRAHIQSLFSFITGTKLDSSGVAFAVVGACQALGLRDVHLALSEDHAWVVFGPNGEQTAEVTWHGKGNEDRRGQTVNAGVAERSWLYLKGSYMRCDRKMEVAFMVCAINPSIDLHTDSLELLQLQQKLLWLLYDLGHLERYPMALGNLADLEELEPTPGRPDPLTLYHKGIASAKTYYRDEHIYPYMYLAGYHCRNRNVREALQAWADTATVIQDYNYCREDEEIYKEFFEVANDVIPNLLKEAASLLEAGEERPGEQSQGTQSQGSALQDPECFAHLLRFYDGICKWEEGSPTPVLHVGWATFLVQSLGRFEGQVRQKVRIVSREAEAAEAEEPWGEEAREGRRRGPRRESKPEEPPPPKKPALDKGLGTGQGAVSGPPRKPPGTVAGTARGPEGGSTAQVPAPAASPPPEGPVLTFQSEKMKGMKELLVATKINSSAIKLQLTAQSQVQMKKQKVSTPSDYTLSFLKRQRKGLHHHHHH
Assay: Menin/MLL homogenous time-resolved fluorescence (HTRF) assay
Settings: 30 min incubation
pIC50: −log10 of the molar value.
# pIC50 >= 9 gives Condition met, anything below gives Condition not met

>>> qualitative_label("Cc1cncc2c1c(C[C@@H]1CCN(CC3CCNC(=O)CC3)C1)cn2-c1ccc(F)cc1C(=O)N1CCC[C@H]1C (single isomer, unassigned) [Compound 353a]")
"Condition met"
>>> qualitative_label("CC(=O)NC(C)CN1CCC(Cc2cn(-c3ccc(F)cc3C(=O)N(C)C(C)C)c3cncc(C)c23)C1 (single isomer, unassigned) [Compound 103]")
"Condition not met"

###

Target: menin/MLL (terbium chelate-labeled menin, FITC-MBM1 peptide) (Homo sapiens, UniProt O00255, T541A)
Construct: Menin (a.a 1-610-6xhis tag, 2.3 mg/mL in 20 mM Hepes)
Assay: Menin/MLL homogenous time-resolved fluorescence (HTRF) assay
Details: 30 min incubation
Form field: IC50 (one value per entry).
readout.name: IC50 (nM)

>>> test_result("CC(=O)N1CCN(CCCC(C(C)C)N2CCC(Cc3cn(-c4ccc(F)cc4C(=O)N(C)C(C)C)c4cncc(C)c34)C2)CC1 (single isomer, unassigned)")
0.016
>>> test_result("CC(=O)N1CCC(CN2CC[C@@H](Cc3cn(-c4ccc(F)cc4C(=O)N4CCC5CC54)c4cncc(C)c34)C2)CC1 (single isomer, unassigned) [Compound 311b]")
0.077
>>> test_result("Cc1cncc2c1c(CC1CCNC1C)cn2-c1ccc(F)cc1C(=O)N(C)C(C)C (stereo not drawn) [Compound 508]")
3.68
>>> test_result("COC(=O)c1cc(F)ccc1-n1cc(C[C@@H]2CCN(CC3CCN(C(C)=O)CC3)C2)c2c(C)cncc21")
0.514
>>> test_result("CC(=O)N1CCC(CN2CC[C@@H](Cc3cn(-c4ccc(F)cc4C(=O)N4[C@H](C)CC[C@H]4C)c4cncc(C)c34)C2)CC1")
0.04
>>> test_result("Cc1cncc2c1c(CC1CCN(CC3CCN(C(=O)C(C)(C)O)CC3)C1)cn2-c1ccc(F)cc1C(=O)N(C)C(C)C (single isomer, unassigned)")
0.027

###

Target: menin/MLL (terbium chelate-labeled menin, FITC-MBM1 peptide) (Homo sapiens, UniProt O00255, T541A)
Construct: Menin (a.a 1-610-6xhis tag, 2.3 mg/mL in 20 mM Hepes)
Experiment: Menin/MLL homogenous time-resolved fluorescence (HTRF) assay
Type: binding
Details: 30 min incubation
readout.name: IC50 (nM)

>>> test_result("CC(=O)N1CC2CC(N3CC(Cc4cn(-c5ccc(F)cc5C(=O)N(C)C(C)C)c5cncc(C)c45)C3)CC2C1 (stereo not shown) [Compound 294b]")
0.077
>>> test_result("CCc1cncc2c1c(C[C@H]1CCN(CC3CCN(C(C)=O)CC3)C1)cn2-c1ccc(F)cc1C(=O)N(C)C(C)C [Compound 260]")
0.042
>>> test_result("Cc1cncc2c1c(CC1CCN(CC3(C)CCN(C(=O)CO)CC3)C1)cn2-c1ccc(F)cc1C(=O)N(C)C(C)C (single isomer, unassigned) [Compound 123]")
0.052
>>> test_result("Cc1cncc2c1c(CC1CCNC1C)cn2-c1ccc(F)cc1C(=O)N(C)C(C)C (stereo not shown) [Compound 510]")
2.95

###

Molecular target: menin/MLL (terbium chelate-labeled menin, FITC-MBM1 peptide) (Homo sapiens, UniProt O00255, T541A)
Construct: Menin (a.a 1-610-6xhis tag, 2.3 mg/mL in 20 mM Hepes)
Sequence (O00255 with tags, fused parts or gaps T541A): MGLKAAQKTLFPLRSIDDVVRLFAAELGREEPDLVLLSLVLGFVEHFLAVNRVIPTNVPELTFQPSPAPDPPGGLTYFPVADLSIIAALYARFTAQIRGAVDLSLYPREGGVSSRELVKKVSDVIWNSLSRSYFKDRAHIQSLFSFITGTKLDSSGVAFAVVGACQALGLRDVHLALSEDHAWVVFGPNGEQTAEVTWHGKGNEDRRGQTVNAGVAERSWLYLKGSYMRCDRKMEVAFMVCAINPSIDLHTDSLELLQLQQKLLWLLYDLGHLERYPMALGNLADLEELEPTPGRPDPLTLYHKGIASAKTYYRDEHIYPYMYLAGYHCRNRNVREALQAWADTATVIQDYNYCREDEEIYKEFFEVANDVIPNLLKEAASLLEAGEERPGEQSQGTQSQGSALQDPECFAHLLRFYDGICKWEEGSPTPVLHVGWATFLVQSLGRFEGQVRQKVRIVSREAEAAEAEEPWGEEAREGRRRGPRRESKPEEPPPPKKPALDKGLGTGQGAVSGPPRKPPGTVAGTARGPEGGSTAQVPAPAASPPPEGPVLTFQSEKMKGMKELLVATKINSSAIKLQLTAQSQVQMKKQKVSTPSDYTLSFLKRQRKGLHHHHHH
Test: Menin/MLL homogenous time-resolved fluorescence (HTRF) assay
Details: 30 min incubation
Protocol: 1) Menin/MLL Homogenous Time-Resolved Fluorescence (HTRF) Assay […] Compound potencies were determined by first calculating % inhibition at each compound concentration according to equation 1: […] Where LC and HC are the HTRF values of the assay in the presence or absence of a saturating concentration of a compound that competes with FITC-MBM1 for binding to menin, and HTRF^compound is the measured HTRF value in the presence of the test compound. […]
readout.name: IC50 (nM)

>>> test_result("Cc1cncc2c1c(C[C@@H]1CCN(CC3CCOCC3)C1)cn2-c1ccc(F)cc1[S@](=N)(=O)C(C)C (single isomer, unassigned) [Compound 78a]")
1.22
>>> test_result("Cc1cncc2c1c(C[C@@H]1CCN(CC3CCC(O)CC3)C1)cn2-c1ccc(F)cc1C(=O)N(C)C(C)C (single isomer, unassigned) [Compound 205a]")
0.049

###

Target: menin/MLL (terbium chelate-labeled menin, FITC-MBM1 peptide) (Homo sapiens, UniProt O00255, T541A)
Construct: Menin (a.a 1-610-6xhis tag, 2.3 mg/mL in 20 mM Hepes)
Test: Menin/MLL homogenous time-resolved fluorescence (HTRF) assay
Details: 30 min incubation
pIC50: −log10 of the molar value.
# pIC50 >= 10 gives 1, anything below gives 0

>>> qualitative_label("Cc1cncc2c1c(C=C1CCN(C)C1)cn2-c1ccc(F)cc1C(=O)N(C)C(C)C (single isomer, unassigned) [Compound 524b]")
0
>>> qualitative_label("Cc1cncc2c1c(CC1CN(CC3CCOCC3)C1)cn2-c1ccc(F)cc1C(=O)N1CCC(O)C1(C)C (stereo not drawn)")
0
>>> qualitative_label("CCN(C(=O)c1cc(F)ccc1-n1cc(C[C@@H]2CCN(CC3CCOCC3)C2)c2c(C)cncc21)C(C)C")
1
>>> qualitative_label("CC(=O)N1CC2CC(CN3CC[C@@H](Cc4cn(-c5ccc(F)cc5C(=O)N5CCC[C@H]5CO)c5cncc(C)c45)C3)CC(C2)C1 (stereo partly drawn)")
0

###

Form field: pIC50 (one value per entry).
Biological target: menin/MLL (terbium chelate-labeled menin, FITC-MBM1 peptide) (Homo sapiens, UniProt O00255, T541A)
Construct: Menin (a.a 1-610-6xhis tag, 2.3 mg/mL in 20 mM Hepes)
Test: Menin/MLL homogenous time-resolved fluorescence (HTRF) assay
Conditions: 30 min incubation
pIC50: −log10 of the molar value.
readout.name: pIC50

>>> test_result("Cc1cncc2c1c(C[C@@H]1CCN(C[C@H]3CCCCO3)C1)cn2-c1ccc(F)cc1C(=O)N(C)C(C)C (single isomer, unassigned) [Compound 147a]")
10.09
>>> test_result("CC(=O)N1CCC(CN2CCC(Cc3cn(-c4ccc(F)cc4C(=O)N(C)C(C)C)c4cncc(C)c34)C2C)CC1 (stereo not drawn) [Compound 226]")
9.59
>>> test_result("COC1CC(C)N(C(=O)c2cc(F)ccc2-n2cc(C[C@@H]3CCN(CC4CCN(C(C)=O)CC4)C3)c3c(C)cncc32)C1 (stereo partly drawn)")
9.66
>>> test_result("CC(=O)N1CCC(C2(CN3CC(Cc4cn(-c5ccc(F)cc5C(=O)N(C)C(C)C)c5cncc(C)c45)C3)CC2)CC1")
10.08
>>> test_result("Cc1cncc2c1c(C[C@@H]1CCN(C3CCNC(=O)CC3)C1)cn2-c1ccc(F)cc1C(=O)N(C)C(C)C (mixture of isomers)")
9.92
>>> test_result("CC(=O)N1CCC[C@H](CN2CC(Cc3cn(-c4ccc(F)cc4C(=O)N(C)C(C)C)c4cncc(C)c34)C2)C1 (single isomer, unassigned) [Compound 90a]")
9.41
